Data credit: patent US20110045101A1

# Test system: Puccinia recondita f. sp. tritici
# assay.remarks: Test H: wheat leaf rust, test suspension sprayed after inoculation of wheat seedlings, visual disease rating
# Format: in vivo
# protocol.conditions: 200 ppm; 100 = 100% disease control, 0 = no control relative to controls
property: Test H disease control rating (%)
Answer format: numeric, % implied, no suffix.

INPUT: GET /values?readout=Test H disease control rating&item= Cc1nc(Cl)c(-c2c(F)ccc(F)c2F)n1-c1ccc(Cl)c(Cl)c1
OUTPUT: 0

INPUT: Consider the compound Fc1cc(F)c(-c2c(Cl)ncn2-c2ccc(OC(F)F)cc2)c(F)c1 and give its measured Test H disease control rating.
OUTPUT: 0

INPUT: // returns reported Test H disease control rating for input Cc1ncc(Cc2c(F)cc(F)cc2F)n1-c1cc(Cl)cc(Cl)c1
OUTPUT: 0

INPUT: Give the measured Test H disease control rating of Cc1nc(Cl)c(-c2c(F)ccc(F)c2F)n1-c1cccc(F)c1 .
OUTPUT: 74

INPUT: Quick one: Test H disease control rating for COc1ccc(-c2c(Cl)nc(Cl)n2-c2ccc(Cl)c(F)c2)cn1 ?
OUTPUT: 0
